# Study system: Albumin (Bos taurus) (UniProt P02769)
# Sequence (P02769 whole entry, looked up): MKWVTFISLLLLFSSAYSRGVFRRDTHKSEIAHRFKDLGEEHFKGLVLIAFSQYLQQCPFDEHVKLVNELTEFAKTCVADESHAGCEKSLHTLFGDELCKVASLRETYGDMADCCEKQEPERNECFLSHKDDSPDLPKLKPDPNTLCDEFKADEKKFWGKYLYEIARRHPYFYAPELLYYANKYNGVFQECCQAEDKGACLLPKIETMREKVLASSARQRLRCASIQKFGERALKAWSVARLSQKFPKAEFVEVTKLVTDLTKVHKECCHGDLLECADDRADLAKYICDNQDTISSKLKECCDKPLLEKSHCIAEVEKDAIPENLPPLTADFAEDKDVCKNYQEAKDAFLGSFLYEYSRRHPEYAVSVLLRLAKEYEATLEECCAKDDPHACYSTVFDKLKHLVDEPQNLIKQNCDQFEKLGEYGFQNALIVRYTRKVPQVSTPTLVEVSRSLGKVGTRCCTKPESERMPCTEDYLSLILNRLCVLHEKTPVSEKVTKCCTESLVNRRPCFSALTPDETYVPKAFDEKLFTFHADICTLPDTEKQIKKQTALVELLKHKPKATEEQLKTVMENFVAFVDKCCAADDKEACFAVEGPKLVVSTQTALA
# Test name: bovine serum albumin binders on microarray, profiling panel, artefact control for SMM control protein annotation, biochemical, small-molecule microarray, Alexa647 label, 635/667 nm fluorescence (AID 1118);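 also: score merges 667 nm emission intensity and signal-to-noise per printed compound spot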
# Protocol conditions: BSA-A647 binding, fluorescence 635 nm, higher = more signal
The threshold is inclusive: composite z-score of exactly 0.4 counts as Criterion met; values below receive Criterion not met.

{"Compound": "NC(=O)N1C(=O)C2C(C1=O)C1C=C(c3ccc(CO)cc3)C2C(c2cccs2)N1Cc1cccc(OC(F)(F)F)c1 (centres undefined)", "Class name": "Criterion not met"}
{"Compound": "CC(CO)N1C(=O)[C@@H]2C3C(=O)OCCC/C=C\\[C@H]3OC23C=CCN(C(C)(C)C)C(=O)[C@@H]13 (some centres undefined)", "Class name": "Criterion not met"}
{"Compound": "CC(C)CNC(=O)[C@@]1(Cc2ccccc2I)c2ccccc2C(=O)N(C2CCCCC2)[C@H]1c1ccc(CO)cc1", "Class name": "Criterion met"}
{"Compound": "[N-]=[N+]=NCc1ccccc1C[C@]1(C(=O)N2CCCCC2)N=C(c2ccc(OCCCO)cc2)O[C@H]1c1ccccc1N=[N+]=[N-]", "Class name": "Criterion met"}
{"Compound": "COc1cc2c(cc1OC)CN(C(=O)[C@H]1[C@@H]3C(=O)O[C@@H](c4ccccc4)[C@@H](c4ccccc4)N3[C@@H](c3ccc(O)cc3)[C@]13C(=O)Nc1ccccc13)CC2", "Class name": "Criterion not met"}

Request: Test whether the compound C=C(COC)/C(=C/C[C@H](OC(C)=O)c1ccc(CO)o1)c1cc(C(=O)OC)ccc1OC records composite z-score of 0.4 or higher.
Result: Criterion met

Request: Test whether the compound COc1cc2c(cc1OC)CN(C(=O)[C@@H]1[C@H]3C(=O)O[C@H](c4ccccc4)[C@H](c4ccccc4)N3[C@H](c3ccc(O)cc3)[C@@]13C(=O)Nc1ccccc13)CC2 records composite z-score of 0.4 or higher.
Result: Criterion met

Request: Test whether the compound CC(C)N1C(=O)[C@@]2(Cc3ccccc31)c1ccccc1C(=O)N(Cc1ccccc1Cl)[C@H]2c1ccc(CO)cc1 records composite z-score of 0.4 or higher.
Result: Criterion not met
